Each record here notes measured KM, steady-state dephosphorylation of the pY peptide.
Target: T1, R24M PTP1B catalytic domain (amino acids 1-321) (human) (UniProt P18031)
T1 sequence: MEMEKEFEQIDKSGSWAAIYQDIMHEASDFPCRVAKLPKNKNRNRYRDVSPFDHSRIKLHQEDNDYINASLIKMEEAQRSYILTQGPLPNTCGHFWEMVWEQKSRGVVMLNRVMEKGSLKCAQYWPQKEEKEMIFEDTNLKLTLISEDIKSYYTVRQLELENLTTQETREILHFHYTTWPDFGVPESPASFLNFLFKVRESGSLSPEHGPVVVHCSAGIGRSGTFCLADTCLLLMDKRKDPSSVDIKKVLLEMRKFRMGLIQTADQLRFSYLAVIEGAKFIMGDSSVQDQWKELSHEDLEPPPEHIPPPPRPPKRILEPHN
Square brackets hold non-standard residues; d marks the D form. pY = N[C@@H](Cc1ccc(OP(=O)(O)O)cc1)C(=O)O
PARAMETER_MEASURED: KM, steady-state dephosphorylation of the pY peptide (µM)

BINDER	NUMERIC_RESULT
Ac-AA[pY]ADDAA-NH2 (SMILES CC(=O)N[C@@H](C)C(=O)N[C@@H](C)C(=O)N[C@@H](Cc1ccc(OP(=O)(O)O)cc1)C(=O)N[C@@H](C)C(=O)N[C@@H](CC(=O)O)C(=O)N[C@@H](CC(=O)O)C(=O)N[C@@H](C)C(=O)N[C@@H](C)C(N)=O) [Ac-AApYADDAA-NH2]	6.4
Ac-ASSDE[pY]AA-NH2 (SMILES CC(=O)N[C@@H](C)C(=O)N[C@@H](CO)C(=O)N[C@@H](CO)C(=O)N[C@@H](CC(=O)O)C(=O)N[C@@H](CCC(=O)O)C(=O)N[C@@H](Cc1ccc(OP(=O)(O)O)cc1)C(=O)N[C@@H](C)C(=O)N[C@@H](C)C(N)=O) [Ac-ASSDEpYAA-NH2]	3.8
Ac-AA[pY]AAADD-NH2 (SMILES CC(=O)N[C@@H](C)C(=O)N[C@@H](C)C(=O)N[C@@H](Cc1ccc(OP(=O)(O)O)cc1)C(=O)N[C@@H](C)C(=O)N[C@@H](C)C(=O)N[C@@H](C)C(=O)N[C@@H](CC(=O)O)C(=O)N[C@@H](CC(=O)O)C(N)=O) [Ac-AApYAAADD-NH2]	8.7
Ac-AA[pY]AADDA-NH2 (SMILES CC(=O)N[C@@H](C)C(=O)N[C@@H](C)C(=O)N[C@@H](Cc1ccc(OP(=O)(O)O)cc1)C(=O)N[C@@H](C)C(=O)N[C@@H](C)C(=O)N[C@@H](CC(=O)O)C(=O)N[C@@H](CC(=O)O)C(=O)N[C@@H](C)C(N)=O) [Ac-AApYAADDA-NH2]	6.9
Ac-AA[pY]IRKRA-NH2 (SMILES CC[C@H](C)[C@H](NC(=O)[C@H](Cc1ccc(OP(=O)(O)O)cc1)NC(=O)[C@H](C)NC(=O)[C@H](C)NC(C)=O)C(=O)N[C@@H](CCCNC(=N)N)C(=O)N[C@@H](CCCCN)C(=O)N[C@@H](CCCNC(=N)N)C(=O)N[C@@H](C)C(N)=O) [Ac-AApYIRKRA-NH2]	52
Ac-AA[pY]DDIDE-NH2 (SMILES CC[C@H](C)[C@H](NC(=O)[C@H](CC(=O)O)NC(=O)[C@H](CC(=O)O)NC(=O)[C@H](Cc1ccc(OP(=O)(O)O)cc1)NC(=O)[C@H](C)NC(=O)[C@H](C)NC(C)=O)C(=O)N[C@@H](CC(=O)O)C(=O)N[C@@H](CCC(=O)O)C(N)=O) [Ac-AApYDDIDE-NH2]	37
